- Tested on: MDR1
- EXPERIMENT NOTES: Apparent passive permeability across basolateral to apical side in MDCK cells expressing human MDR1
- Format: ADME, cell-based, Canis lupus familiaris
- TEST CONTEXT: dog
METRIC: Papp B→A (×10⁻⁶ cm/s)
Give bare numbers, in ×10⁻⁶ cm/s.

## Task Request - read-out Papp B→A | tested on MDR1 | compound COc1cccc(OC)c1C1CCCC(=O)N1Cc1ccc2ccccc2n1 (single isomer, unassigned)
## Result 63.2

###

- SYSTEM UNDER TEST: Cytochrome P450 2D6 (Homo sapiens)
- Sequence (P10635 whole entry): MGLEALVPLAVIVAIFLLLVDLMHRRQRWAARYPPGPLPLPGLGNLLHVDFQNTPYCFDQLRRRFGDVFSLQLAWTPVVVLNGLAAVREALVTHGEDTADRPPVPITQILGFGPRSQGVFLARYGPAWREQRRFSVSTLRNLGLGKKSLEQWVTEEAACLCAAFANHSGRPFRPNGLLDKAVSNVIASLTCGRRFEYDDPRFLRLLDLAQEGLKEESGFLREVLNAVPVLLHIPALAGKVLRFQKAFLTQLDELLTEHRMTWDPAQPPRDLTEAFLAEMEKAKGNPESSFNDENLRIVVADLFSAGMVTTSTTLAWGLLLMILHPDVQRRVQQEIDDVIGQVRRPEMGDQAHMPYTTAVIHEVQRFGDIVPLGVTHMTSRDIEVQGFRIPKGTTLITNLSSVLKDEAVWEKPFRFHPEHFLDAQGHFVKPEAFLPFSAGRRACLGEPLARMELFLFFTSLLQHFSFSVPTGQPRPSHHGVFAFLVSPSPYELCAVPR
pIC50: −log10 of the molar value.
METRIC: pIC50

## Task Look up pIC50 for this compound: COc1cccc(OC)c1C1CCCC(=O)N1Cc1ccc2ccccc2n1 (single isomer, unassigned)
## Result < 4.52

###

Would you kindly list microsomal CLint at 1 µM for each of these molecules?
- EXPERIMENT NOTES: Intrinsic clearance in human liver microsomes at 1 uM
- Type: ADME
- TEST CONTEXT: read-out: CLH

Solved cases below.
INSERT INTO results (molecule, metric, value_observed) VALUES
  ('COc1ccc2nc(C)oc2c1C1CCCC(=O)N1Cc1cccc(-c2ccccc2)c1 (racemic)', 'microsomal CLint at 1 µM', '> 1250 µL/min/mg'),
  ('COc1cccc(OC)c1C1CCCC(=O)N1Cc1cccc(-c2ccccn2)c1 (racemic)', 'microsomal CLint at 1 µM', '> 1250 µL/min/mg'),
  ('COc1cccc(OC)c1C1CC(C)C(=O)N1Cc1ccc2oc3ccccc3c2c1 (mixture of isomers)', 'microsomal CLint at 1 µM', '260 µL/min/mg');

Quick one: give me microsomal CLint at 1 µM for each item below, same order please.
1. COc1cccc(OC)c1C1CCCC(=O)N1Cc1ccc2sc(C)nc2c1 (racemic)
2. COc1cccc(OC)c1C1CC(C)C(=O)N1Cc1ccc2sc(C)nc2c1 (mixture of isomers)

## Result
1. 860 µL/min/mg
2. 88 µL/min/mg

Look at each molecule and report its microsomal CLint at 1 µM.
1. COc1cccc(OC)c1C1CCCC(=O)N1Cc1cccc(-c2ncccn2)c1 (stereo not drawn)
2. COc1cccc(OC)c1C1CCCC(=O)N1Cc1cccc(-n2nccn2)c1 (racemic)
3. COc1cccc(OC)c1C1CCCC(=O)N1Cc1ccc(OC(F)(F)F)cc1 (racemic)
4. COc1ccnc(OC)c1C1CCCC(=O)N1Cc1csc(-c2ccccc2)n1 (racemic)

## Result
1: > 1250 µL/min/mg; 2: > 1250 µL/min/mg; 3: > 1250 µL/min/mg; 4: 912 µL/min/mg

###

Field: IC50. Provide a value for each of the compounds that follow.
- SYSTEM UNDER TEST: UniProt:O43614
- Sequence (O43614 whole entry): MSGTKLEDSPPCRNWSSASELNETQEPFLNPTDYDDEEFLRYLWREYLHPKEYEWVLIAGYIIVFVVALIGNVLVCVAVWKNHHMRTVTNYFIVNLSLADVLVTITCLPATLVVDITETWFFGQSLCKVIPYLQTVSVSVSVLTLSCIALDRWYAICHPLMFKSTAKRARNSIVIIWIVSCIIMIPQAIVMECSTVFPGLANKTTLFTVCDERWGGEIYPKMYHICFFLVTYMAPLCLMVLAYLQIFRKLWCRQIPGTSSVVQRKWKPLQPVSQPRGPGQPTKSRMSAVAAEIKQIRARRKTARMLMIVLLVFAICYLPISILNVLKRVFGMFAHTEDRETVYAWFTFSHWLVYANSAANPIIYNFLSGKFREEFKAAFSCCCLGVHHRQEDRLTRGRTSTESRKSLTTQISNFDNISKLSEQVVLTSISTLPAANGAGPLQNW
- EXPERIMENT NOTES: Antagonist activity at human orexin 2 receptor expressed in CHO cells assessed as inhibition of orexin-A-induced calcium mobilization by FLIPR assay
Numbers only, in nM.

INSERT INTO measurements (compound, system_under_test, metric, value_observed) VALUES
  ('COc1cccc(OC)c1C1C2CC2C(=O)N1Cc1ccc(OC(F)(F)F)cc1 (mixture of isomers)', 'UniProt:O43614', 'IC50', 1070),
  ('COc1cccc(OC)c1C1CCCC(=O)N1CCc1ccccc1 (racemic)', 'UniProt:O43614', 'IC50', 1330);

Provide IC50 values for the following items, in order.
1. COc1cccc(OC)c1C1COC(=O)N1Cc1ccc(OC(F)(F)F)cc1 (racemic)
2. COc1cccc(OC)c1C1CCCC(=O)N1Cc1cnc2ccccc2c1 (racemic)
3. COc1cccc(OC)c1C1SCC(=O)N1Cc1ccc(OC(F)(F)F)cc1 (racemic)
4. COc1cccc(OC)c1C1CCCC(=O)N1Cc1ccc(OC(F)(F)F)cc1 (racemic)

## Result
1: 771; 2: 217; 3: 16; 4: 25

Record IC50 per entry; entries follow.
1. COc1cccc(OC)c1C1CCCCC(=O)N1Cc1ccc(OC(F)(F)F)cc1 (racemic)
2. COc1ccc2nc(C)oc2c1C1CCCC(=O)N1Cc1cccc(-c2csc(C)n2)c1 (racemic)

## Result
1. 74
2. 65

Give IC50 for all compounds that follow.
1. COc1cccc(OC)c1C1CCCC(=O)N1C(C)c1ccc(OC(F)(F)F)cc1 (mixture of isomers)
2. COc1ccc2nc(C)oc2c1C1CCCC(=O)N1Cc1cccc(-c2ccccc2)c1 (racemic)

## Result
1. 21
2. 93

###

- EXPERIMENT NOTES: Half life in human liver microsomes
- Format: ADME
METRIC: half-life

## Task Bench note: what half-life did COc1cccc(OC)c1C1CCCC(=O)N1Cc1ccc2ccccc2c1 (racemic) show?
## Result < 1 min

###

- System: MDR1
- EXPERIMENT NOTES: Apparent passive permeability across apical to basolateral side in MDCK cells expressing human MDR1
- Assay type: ADME, cell-based, Canis lupus familiaris
- TEST CONTEXT: dog
METRIC: Papp A→B (×10⁻⁶ cm/s)
One number for each entry, in ×10⁻⁶ cm/s.

## Task Param item = COc1cccc(OC)c1C1CCCC(=O)N1Cc1ccc2ccccc2n1 (single isomer, unassigned) ; retrieve measured Papp A→B.
## Result 24.2

###

Hi there, I'd appreciate the recorded Kp at 3 h for every entry that follows.
- EXPERIMENT NOTES: Ratio of drug level in brain to plasma in Wistar rat at 100 mg/kg, po after 3 hrs
- Type: ADME, organism-based
- Design: dose 100 mg/kg, route oral
- TEST CONTEXT: read-out: BPR
Give bare numbers.

INSERT INTO results (compound, value_observed) VALUES
  ('COc1cccc(OC)c1C1CCCC(=O)N1Cc1ccc2ccccc2n1 (single isomer, unassigned)', 0.8);

We now examine a further compound.
## Task Quick one: Kp at 3 h for COc1cccc(OC)c1C1CCCC(=O)N1Cc1ccc(OC(F)(F)F)cc1 (racemic) ?
## Result 1.6

###

- SYSTEM UNDER TEST: Orexin/Hypocretin receptor type 1 (Homo sapiens, UniProt O43613)
- Sequence (O43613 whole entry): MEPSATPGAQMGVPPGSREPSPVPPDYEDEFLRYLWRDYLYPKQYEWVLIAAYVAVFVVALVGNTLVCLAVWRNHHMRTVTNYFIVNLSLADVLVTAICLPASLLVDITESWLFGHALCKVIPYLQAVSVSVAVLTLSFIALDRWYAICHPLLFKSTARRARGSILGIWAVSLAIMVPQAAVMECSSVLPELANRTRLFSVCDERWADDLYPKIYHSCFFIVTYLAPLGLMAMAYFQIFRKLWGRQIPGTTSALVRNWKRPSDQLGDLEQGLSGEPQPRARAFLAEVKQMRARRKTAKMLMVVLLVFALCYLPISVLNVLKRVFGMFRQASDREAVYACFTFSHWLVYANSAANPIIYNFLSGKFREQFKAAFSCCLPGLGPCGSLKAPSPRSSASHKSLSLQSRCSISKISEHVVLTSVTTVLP
- EXPERIMENT NOTES: Antagonist activity at human orexin 1 receptor expressed in CHO cells assessed as inhibition of orexin-A-induced calcium mobilization by FLIPR assay
pIC50: −log10 of the molar value.
Please use MET whenever pIC50 is not below 7, and NOT MET whenever it is.

Consider the worked cases shown below.
INSERT INTO measurements (compound, system_under_test, label) VALUES
  ('COc1cccc(OC)c1C1CCCC(=O)N1c1ccccc1 (racemic)', 'Orexin/Hypocretin receptor type 1 (Homo sapiens, UniProt O43613)', 'NOT MET'),
  ('COc1cccc(OC)c1C1CCCC(=O)N1Cc1ccc(Oc2ccccc2)cc1 (racemic)', 'Orexin/Hypocretin receptor type 1 (Homo sapiens, UniProt O43613)', 'NOT MET'),
  ('COc1cccc(OC)c1C1CCCC(=O)N1Cc1ccc2ccccc2n1 (racemic)', 'Orexin/Hypocretin receptor type 1 (Homo sapiens, UniProt O43613)', 'MET'),
  ('COc1cccc(OC)c1C1C2CC2C(=O)N1Cc1ccc(OC(F)(F)F)cc1 (mixture of isomers)', 'Orexin/Hypocretin receptor type 1 (Homo sapiens, UniProt O43613)', 'NOT MET'),
  ('COc1ccc2nc(C)oc2c1C1CCCC(=O)N1Cc1cccc(-c2ccccc2)c1 (racemic)', 'Orexin/Hypocretin receptor type 1 (Homo sapiens, UniProt O43613)', 'MET'),
  ('COc1cccc(OC)c1C1CCCC(=O)N1CCc1ccccc1 (racemic)', 'Orexin/Hypocretin receptor type 1 (Homo sapiens, UniProt O43613)', 'NOT MET'),
  ('COc1ccc2nc(C)oc2c1C1CCCC(=O)N1Cc1cccc(-c2csc(C)n2)c1 (racemic)', 'Orexin/Hypocretin receptor type 1 (Homo sapiens, UniProt O43613)', 'MET'),
  ('COc1cccc(OC)c1C1c2ccccc2C(=O)N1Cc1ccc(OC(F)(F)F)cc1 (racemic)', 'Orexin/Hypocretin receptor type 1 (Homo sapiens, UniProt O43613)', 'NOT MET');

## Task Determine whether this compound has pIC50 no lower than 7: COc1cccc(OC)c1C1CCCC(=O)N1Cc1ccc2sc(C)nc2c1 (racemic)
## Result MET

## Task Entry COc1cccc(OC)c1C1CCCC(=O)N1Cc1cnc2ccccc2c1 (racemic) please
## Result NOT MET

###

- EXPERIMENT NOTES: Intrinsic clearance in human liver microsomes at 1 uM
- Format: ADME
- TEST CONTEXT: read-out: CLH
METRIC: microsomal CLint at 1 µM

Example compounds with recorded microsomal CLint at 1 µM:
INSERT INTO assay_data (compound, value_observed) VALUES
  ('COc1cccc(OC)c1C1CCCC(=O)N1Cc1csc(-c2ccccc2)n1 (racemic)', '> 1250 µL/min/mg'),
  ('COc1cccc(OC)c1C1CCCC(=O)N1Cc1ccnc(-c2ccccc2)c1 (racemic)', '> 1250 µL/min/mg');

## Task For the compound COc1cccc(OC)c1C1CCCC(=O)N1Cc1ccnc(-c2nccs2)c1 (racemic) , what microsomal CLint at 1 µM is on record?
## Result > 1250 µL/min/mg
